Test system: HCT116 cells
Test: CCK-8 cell proliferation assay, HCT116
Assay type: cell-based
Settings: Homo sapiens, HCT-116; CCK-8, 72 h, ATM-normal cell line, three independent experiments; read-out: IC50 ± SD, HCT116
pIC50 for assorted compounds
// pIC50 is dimensionless: -log10 of concentration (M)

Example cases with answers are listed next.
COCC(=O)N1CCc2c(nc(-c3ccnc4[nH]ccc34)nc2N2CCOC[C@H]2C)C1 : 5.22
C[C@@H]1COCCN1c1cc(C2([S@](C)(=N)=O)CC2)nc(-c2cc[nH]c3nccc2-3)n1 [AZD6738, ceralasertib, reference compound] : 5.36
CC(C)CC(=O)N1CCc2c(nc(-c3ccnc4[nH]ccc34)nc2N2CCOC[C@H]2C)C1 : 5.29

Report the value of pIC50 obtained on HCT116 cells for `C[C@@H]1COCCN1c1nc(-c2cccc3[nH]ccc23)nc2c1CCN(C(=O)CC#N)C2` . 5.79
